protocol.details: Biodistribution in SCID mice bearing AsPC-1 xenografts
Type: in vivo
condition.info: male, mouse, liver, iv, total radioactivity, 24 h pi, Entresto+Lis, read-out: uptake in Liver
Protocol: Twenty male severe combined immunodeficiency (SCID) mice (23.1 ± 1.6 g body weight, six weeks of age on arrival day; NCSR “Demokritos” Animal House, Athens, Greece) were used in the biodistribution experiments. […] Sample radioactivity was measured on the γ-counter together with proper standards of the injected dose. Results were calculated as percentage of injected activity per gram tissue (%IA/g) and provided as mean %IA/g values ± sd. […]
Peptide text beside a SMILES is read from it. * marks the point of attachment. Palmitoyl = CCCCCCCCCCCCCCCC(=O)*; X1 = NCCNCC(CNCCN)C(=O)*
assay.endpoint: tissue uptake at 24 h (%ID/g)

compound	numeric.value
CCCCCCCCCCCCCCCC(=O)NCCCC[C@H](NC(=O)C(CNCCN)CNCCN)C(=O)N[C@@H](CCCNC(=N)N)C(=O)N[C@@H](CCCNC(=N)N)C(=O)N1CCC[C@H]1C(=O)N[C@@H](Cc1ccc(O)cc1)C(=O)N[C@H](C(=O)N[C@@H](CC(C)C)C(=O)O)[C@@H](C)CC [[^99mTc]Tc-DT9, metal not drawn] (X1-K(Palmitoyl)RRPYIL-OH)	17

---

protocol.details: Biodistribution in SCID mice bearing AsPC-1 xenografts
Assay type: in vivo
condition.info: male, mouse, blood, iv, 3 pmol, total radioactivity, 24 h pi, Controls, read-out: uptake in Blood
Peptide text beside a SMILES is read from it. * marks the point of attachment. Palmitoyl = CCCCCCCCCCCCCCCC(=O)*; X1 = NCCNCC(CNCCN)C(=O)*

compound	tissue uptake at 24 h
CCCCCCCCCCCCCCCC(=O)NCCCC[C@H](NC(=O)C(CNCCN)CNCCN)C(=O)N[C@@H](CCCNC(=N)N)C(=O)N[C@@H](CCCNC(=N)N)C(=O)N1CCC[C@H]1C(=O)N[C@@H](Cc1ccc(O)cc1)C(=O)N[C@H](C(=O)N[C@@H](CC(C)C)C(=O)O)[C@@H](C)CC [[^99mTc]Tc-DT9, metal not drawn] (X1-K(Palmitoyl)RRPYIL-OH)	0.68 %ID/g

---

protocol.details: Biodistribution in SCID mice bearing AsPC-1 xenografts
Type: in vivo
condition.info: male, mouse, AsPC-1 tumor, iv, total radioactivity, 4 h pi, Block (Entresto+Lis plus excess NT), read-out: uptake in AsPC-1 Tumor
Peptide text beside a SMILES is read from it. * marks the point of attachment. Palmitoyl = CCCCCCCCCCCCCCCC(=O)*; X1 = NCCNCC(CNCCN)C(=O)*

molecule	readout.units	tissue uptake at 4 h
CCCCCCCCCCCCCCCC(=O)NCCCC[C@H](NC(=O)C(CNCCN)CNCCN)C(=O)N[C@@H](CCCNC(=N)N)C(=O)N[C@@H](CCCNC(=N)N)C(=O)N1CCC[C@H]1C(=O)N[C@@H](Cc1ccc(O)cc1)C(=O)N[C@H](C(=O)N[C@@H](CC(C)C)C(=O)O)[C@@H](C)CC [[^99mTc]Tc-DT9, metal not drawn] (X1-K(Palmitoyl)RRPYIL-OH)	%ID/g	3.68

---

protocol.details: Biodistribution in SCID mice bearing AsPC-1 xenografts
Assay type: in vivo
condition.info: male, mouse, muscle, iv, total radioactivity, 4 h pi, Block (Entresto+Lis plus excess NT), read-out: uptake in Muscle
Peptide text beside a SMILES is read from it. * marks the point of attachment. Palmitoyl = CCCCCCCCCCCCCCCC(=O)*; X1 = NCCNCC(CNCCN)C(=O)*

compound	tissue uptake at 4 h
CCCCCCCCCCCCCCCC(=O)NCCCC[C@H](NC(=O)C(CNCCN)CNCCN)C(=O)N[C@@H](CCCNC(=N)N)C(=O)N[C@@H](CCCNC(=N)N)C(=O)N1CCC[C@H]1C(=O)N[C@@H](Cc1ccc(O)cc1)C(=O)N[C@H](C(=O)N[C@@H](CC(C)C)C(=O)O)[C@@H](C)CC [[^99mTc]Tc-DT9, metal not drawn] (X1-K(Palmitoyl)RRPYIL-OH)	0.82 %ID/g

---

protocol.details: Biodistribution in SCID mice bearing AsPC-1 xenografts
Assay type: in vivo
condition.info: male, mouse, muscle, iv, 3 pmol, total radioactivity, 4 h pi, Controls, read-out: uptake in Muscle
Peptide text beside a SMILES is read from it. * marks the point of attachment. Palmitoyl = CCCCCCCCCCCCCCCC(=O)*; X1 = NCCNCC(CNCCN)C(=O)*
assay.endpoint: tissue uptake at 4 h (%ID/g)

molecule	numeric.value
CCCCCCCCCCCCCCCC(=O)NCCCC[C@H](NC(=O)C(CNCCN)CNCCN)C(=O)N[C@@H](CCCNC(=N)N)C(=O)N[C@@H](CCCNC(=N)N)C(=O)N1CCC[C@H]1C(=O)N[C@@H](Cc1ccc(O)cc1)C(=O)N[C@H](C(=O)N[C@@H](CC(C)C)C(=O)O)[C@@H](C)CC [[^99mTc]Tc-DT9, metal not drawn] (X1-K(Palmitoyl)RRPYIL-OH)	0.93

---

protocol.details: Biodistribution in SCID mice bearing AsPC-1 xenografts
Type: in vivo
condition.info: male, mouse, blood, iv, total radioactivity, 4 h pi, Block (Entresto+Lis plus excess NT), read-out: uptake in Blood
Peptide text beside a SMILES is read from it. * marks the point of attachment. Palmitoyl = CCCCCCCCCCCCCCCC(=O)*; X1 = NCCNCC(CNCCN)C(=O)*
assay.endpoint: tissue uptake at 4 h (%ID/g)

compound	numeric.value
CCCCCCCCCCCCCCCC(=O)NCCCC[C@H](NC(=O)C(CNCCN)CNCCN)C(=O)N[C@@H](CCCNC(=N)N)C(=O)N[C@@H](CCCNC(=N)N)C(=O)N1CCC[C@H]1C(=O)N[C@@H](Cc1ccc(O)cc1)C(=O)N[C@H](C(=O)N[C@@H](CC(C)C)C(=O)O)[C@@H](C)CC [[^99mTc]Tc-DT9, metal not drawn] (X1-K(Palmitoyl)RRPYIL-OH)	4.25

---

protocol.details: Biodistribution in SCID mice bearing AsPC-1 xenografts
Assay type: in vivo
condition.info: male, mouse, stomach, iv, total radioactivity, 24 h pi, Entresto+Lis, read-out: uptake in Stomach
Peptide text beside a SMILES is read from it. * marks the point of attachment. Palmitoyl = CCCCCCCCCCCCCCCC(=O)*; X1 = NCCNCC(CNCCN)C(=O)*

compound	tissue uptake at 24 h
CCCCCCCCCCCCCCCC(=O)NCCCC[C@H](NC(=O)C(CNCCN)CNCCN)C(=O)N[C@@H](CCCNC(=N)N)C(=O)N[C@@H](CCCNC(=N)N)C(=O)N1CCC[C@H]1C(=O)N[C@@H](Cc1ccc(O)cc1)C(=O)N[C@H](C(=O)N[C@@H](CC(C)C)C(=O)O)[C@@H](C)CC [[^99mTc]Tc-DT9, metal not drawn] (X1-K(Palmitoyl)RRPYIL-OH)	1.56 %ID/g

---

protocol.details: Biodistribution in SCID mice bearing AsPC-1 xenografts
Assay type: in vivo
condition.info: male, mouse, lungs, iv, total radioactivity, 4 h pi, Entresto+Lis, read-out: uptake in Lungs
Peptide text beside a SMILES is read from it. * marks the point of attachment. Palmitoyl = CCCCCCCCCCCCCCCC(=O)*; X1 = NCCNCC(CNCCN)C(=O)*
assay.endpoint: tissue uptake at 4 h (%ID/g)

compound	assay.endpoint	readout.units	numeric.value
CCCCCCCCCCCCCCCC(=O)NCCCC[C@H](NC(=O)C(CNCCN)CNCCN)C(=O)N[C@@H](CCCNC(=N)N)C(=O)N[C@@H](CCCNC(=N)N)C(=O)N1CCC[C@H]1C(=O)N[C@@H](Cc1ccc(O)cc1)C(=O)N[C@H](C(=O)N[C@@H](CC(C)C)C(=O)O)[C@@H](C)CC [[^99mTc]Tc-DT9, metal not drawn] (X1-K(Palmitoyl)RRPYIL-OH)	tissue uptake at 4 h	%ID/g	7.61

---

protocol.details: Biodistribution in SCID mice bearing AsPC-1 xenografts
Format: in vivo
condition.info: male, mouse, pancreas, iv, 3 pmol, total radioactivity, 24 h pi, Controls, read-out: uptake in Pancreas
Peptide text beside a SMILES is read from it. * marks the point of attachment. Palmitoyl = CCCCCCCCCCCCCCCC(=O)*; X1 = NCCNCC(CNCCN)C(=O)*

compound	tissue uptake at 24 h, %ID/g
CCCCCCCCCCCCCCCC(=O)NCCCC[C@H](NC(=O)C(CNCCN)CNCCN)C(=O)N[C@@H](CCCNC(=N)N)C(=O)N[C@@H](CCCNC(=N)N)C(=O)N1CCC[C@H]1C(=O)N[C@@H](Cc1ccc(O)cc1)C(=O)N[C@H](C(=O)N[C@@H](CC(C)C)C(=O)O)[C@@H](C)CC [[^99mTc]Tc-DT9, metal not drawn] (X1-K(Palmitoyl)RRPYIL-OH)	0.75

---

protocol.details: Biodistribution in SCID mice bearing AsPC-1 xenografts
Assay type: in vivo
condition.info: male, mouse, pancreas, iv, total radioactivity, 4 h pi, Block (Entresto+Lis plus excess NT), read-out: uptake in Pancreas
Peptide text beside a SMILES is read from it. * marks the point of attachment. Palmitoyl = CCCCCCCCCCCCCCCC(=O)*; X1 = NCCNCC(CNCCN)C(=O)*

compound	readout.units	tissue uptake at 4 h
CCCCCCCCCCCCCCCC(=O)NCCCC[C@H](NC(=O)C(CNCCN)CNCCN)C(=O)N[C@@H](CCCNC(=N)N)C(=O)N[C@@H](CCCNC(=N)N)C(=O)N1CCC[C@H]1C(=O)N[C@@H](Cc1ccc(O)cc1)C(=O)N[C@H](C(=O)N[C@@H](CC(C)C)C(=O)O)[C@@H](C)CC [[^99mTc]Tc-DT9, metal not drawn] (X1-K(Palmitoyl)RRPYIL-OH)	%ID/g	1.84

Values were extracted from paper PMC10459693.
